- protocol_details: NCI Yeast Anticancer Drug Screen. Data for the sgs1 mgt1 strain (AID 161);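 note: 0% = growth of cultures given vehicle only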
- reported_conditions: S. cerevisiae sgs1 mgt1 strain, at 5.0 µM (retest, dose inferred, filed as 0.5), active compounds read high
This is part of a sample that, as a whole, favours compounds with a hit. Of some 79,000 tested, about 15% had one in any assay.
assay_endpoint: growth inhibition (%)

molecule	result
O=C1C(=Cc2ccccc2O)N=C(c2ccccc2)N1n1c(-c2ccccc2)nc2ccccc2c1=O	0
Cc1cc(=O)n(-c2cc3cccccc-3n2)[nH]1	2
O=c1c(Cl)cc2nc3ccccc3sc-2c1Cl	33
CC1=CC(C2/C(=N/O)C=C(C)CC2(C)C)C(O)C(C)(C)C1 (stereo unspecified)	-4
[Cl][Ge]([c]1ccccc1)[c]1ccccc1.[Cl][Ge]([c]1ccccc1)[c]1ccccc1	23
CN1CCN(CC(=O)c2c(-c3ccccc3)[nH]c3ccccc23)CC1	66
CC1OC(OP(=O)(OCc2ccccc2)OCc2ccccc2)C(OC(=O)c2ccccc2)C(OC(=O)c2ccccc2)C1I (stereo unspecified)	37
Cc1ccc(SCc2ccc(Cl)cc2Cl)nn1	-4
CC(=O)c1cccc([N+](=O)[O-])c1	-1
CCCCN(CCCC)S(=O)(=O)c1ccccc1	1
O=C(Nc1ccccc1)O/N=C1/CCCC/C1=C\c1ccccc1	57

* * *

- protocol_details: NCI Yeast Anticancer Drug Screen. Data for the mec2-1 strain (AID 157)
- reported_conditions: S. cerevisiae mec2-1 strain, at 50.0 µM, active compounds read high
This is part of a sample that, as a whole, favours compounds with a hit. Of some 79,000 tested, about 15% had one in any assay.

compound	growth inhibition / %
CCCOCCC#N	7.45
O=C1c2ccccc2C(=O)c2c1cccc2[N+](=O)[O-]	73
CCCCCCCNC1CCCc2cc(OC)ccc21 (stereo unspecified)	70.5
CN1C/C(=C\c2ccc(Cl)cc2)C(=O)/C(=C/c2ccc(Cl)cc2)C1	88.5
Nc1ccccc1SC(C[N+](=O)[O-])c1ccc2c(c1)OCO2 (stereo unspecified)	99
CC(C)SC(=S)Nc1ccc(Cl)c([N+](=O)[O-])c1	99.6
c1ccc(-c2c3ccccc3cc3ccc4ccccc4c23)nc1	52.9
CCCCn1cnc2c(SCc3ccccc3[N+](=O)[O-])nc(N)nc21	98.2
COC(=S)S	18.7
COc1cc(C)c2sc3ccccc3c(=O)c2c1NCCCN(C)C	37
CC(=O)Nc1ccc2c(c1)C(=Nc1ccc(F)cc1)c1ccccc1-2	4.35
COc1ccc(OC)c(CC(Cl)(C#N)C#N)c1	99.8
c1ccc2c(c1)-c1cccc3cncc-2c13	92.6
CCCCN(CCCC)S(=O)(=O)c1ccccc1	32.4
CCCCCCOC(=O)Nc1ccc(S(=O)(=O)N2CCCCC2)cc1	28.1
CCCCN(C)N=Nc1c(C(N)=O)n[nH]c1C(C)C	24.4
Cc1cc(Br)cc(C(=O)Cl)c1O	22
CCCCP(CCCC)(CCCC)=C(C(=O)OC)C(C(=O)OC)=C1SC(C(=O)OC)=C(C(=O)OC)S1	10.3
C=CCOc1ccc(-c2ccccc2)cc1C(=O)NC	6.3
CCOC(=O)C(=O)N1C(C)=C(C(=O)OCC)CC(C(=O)OCC)=C1C	-26.2
Cc1ccc(/C=C2\CCC/C(=C\c3ccc(O)c(CN4CCCCC4)c3)C2=O)cc1	-15.2
COc1ccc(OC)c2c1C=CC(Br)=CC2	27
[O-][N+]1=C2CCC/C(=N/O)C2(O)C2CCCCC21N1CCOCC1 (stereo unspecified)	-39.8
Cc1cccc(Cc2cccc(Cl)c2)c1O	99.8
CCOC(=O)CC(N)CC(=O)OCC	39.1
Oc1ccccc1/C=N\N=C\c1ccccc1O	3.5

* * *

Overview of reported growth inhibition across a group of compounds:
- protocol_details: NCI Yeast Anticancer Drug Screen. Data for the mec2-1 strain (AID 157)
- reported_conditions: S. cerevisiae mec2-1 strain, at 5.0 µM (retest, dose inferred, filed as 0.5), active compounds read high
This is part of a sample that, as a whole, favours compounds with a hit. Of some 79,000 tested, about 15% had one in any assay.
assay_endpoint: growth inhibition (%)

compound	result
NC(=O)CC1CCC(c2ccccc2)CC1 (centres undefined)	-6
CCOC(=O)C(CC(=O)O)=C(c1ccccc1)c1ccccc1	-5
Cc1nn(C(=S)S)c(C)c1N=Nc1cccc(F)c1	-1
CCCCCC[C@@H](O)C/C=C\CCCCCCCC(=O)OCCCC	-4
CN(C)CCC(=O)c1ccco1	13
CN(C)CCOC1(CC2CCCCC2)CCC(C(C)(C)C)CC1 (centres undefined)	-17
C(=N\NC1=NCCN1)/c1cccc2cc3ccncc3nc12	7
COC(=O)C1(COCc2ccccc2)CCCC2OC21 (centres undefined)	6
O=S1OCCS1 (centres undefined)	4
CC1(CO)CCCC2(C)C1CCC1CC3C=CC12C1C(=O)OC(=O)C31 (centres undefined)	25
COc1ccc(Cc2ccc3c(C)cc(Cl)nc3c2)cc1	-8
CC(C)C1=CC[C@H]2C(=C1)CC[C@@H]1[C@]2(C)CCC[C@@]1(C)C(=O)O	15
CC(=O)/C(=C\c1cccc(Cl)c1)C(=O)CCN(C)C	20
O=[N+]([O-])c1ccc(C2=Nn3cnnc3SC2)o1	5
O=C1C=CC(Nc2cccc([N+](=O)[O-])c2)C1Nc1cccc([N+](=O)[O-])c1 (centres undefined)	16
NCCNC[Si](c1ccccc1)(c1ccccc1)c1ccccc1	-3
CCOP(=O)(OCC)OC1c2[nH]ccc2-c2cc(C(=O)OC)[nH]c2C1OC (centres undefined)	0
N/C(=N\OC1(c2ccccc2)OC(=O)C(=O)/C1=C(/O)c1ccccc1)c1ccccc1 (centres undefined)	8
CC(=O)N1CCCC2=C1CCCCCCCCCC2	-6
Cc1ncc(CO)c(C=NCCCCCCN=Cc2c(CO)cnc(C)c2[O-])c1[O-].[Cu+2]	-3
CCOC(CC)C(O)(c1ccc(N(C)C)cc1)c1ccc(N(C)C)cc1 (centres undefined)	-1
O=c1c2cc(Cl)ccc2[nH]c2cc(O)cc(O)c12	-43
Cc1c(O)/c(=C\O)c2nc3c(=O)ccc(C(=O)NCCN(C)C)c3[nH]c2c1=O	14
O=Nc1c(O)c2ccccc2c2ccc([N+](=O)[O-])cc12	48

* * *

- protocol_details: NCI Yeast Anticancer Drug Screen. Data for the rad50 strain (AID 155);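 note: 0% = growth of vehicle-only cultures of the same strain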
- reported_conditions: S. cerevisiae rad50 strain growth inhibition; at 50.0 µM (retest, dose inferred, filed as 5.0); active compounds read high
About 79,000 compounds went through this panel and 15% of them were active in at least one assay; those are over-represented in the sample as a whole.
So basically: growth inhibition at 80% or higher? That is rule met. Lower than 80%? That is rule not met.

molecule	category_label
COC(=O)C1c2cc3c(c(O)c2CCC1(C)O)C(=O)c1c(O)cc2c(c1C3=O)OC1OC2(C)C(O)C(N(C)C)C1O (stereo unspecified)	rule not met
Cc1cc(Br)cc(C)c1NC(=O)C(=O)C(C(=O)c1ccc2ccccc2c1)C1OC(=O)c2ccccc21 (stereo unspecified)	rule not met
CCCCC(CC)(COC(C)=O)COC(C)=O	rule not met
C(=N\NC1=NCCN1)/c1cccc2cc3ccncc3nc12	rule not met
CCCCCCCCN(CCCCCCCC)CC(O)c1cc(-c2ccc(Cl)cc2)nc2c(Cl)cccc12 (stereo unspecified)	rule not met
OC(COc1ccc(Cl)cc1)CN1CCN(c2cccc(Cl)c2)CC1 (stereo unspecified)	rule met
CCCCCCC[n+]1ccc(C(=O)c2ccccc2)cc1	rule met
S=c1ncc2c([nH]1)C1c3ccccc3C2c2ccccc21	rule met
N#Cc1c(Cl)cc(Cl)n2c1nc1ccccc12	rule met
C\C=C/C=C/C=C/C(=O)O	rule not met

* * *

- protocol_details: NCI Yeast Anticancer Drug Screen. Data for the sgs1 mgt1 strain (AID 161);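 note: 0% = growth of cultures given vehicle only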
- reported_conditions: S. cerevisiae sgs1 mgt1 strain, at 5.0 µM (retest, dose inferred, filed as 0.5), active compounds read high
Compounds without any hit were thinned out: in the full panel of roughly 79,000, 15% have a hit.
Overview of reported growth inhibition across a group of compounds:
assay_endpoint: growth inhibition (%)

compound	result
CC(C)(C)NC(=S)N/N=C/c1ccccc1O	40
CCCCCC1OC(CCCCC)OC(CCCCC)O1 (configuration not stated)	0
[O-]/[N+]1=[N+](\[O-])c2ccccc2CCc2ccccc21	4
CCCN1CSC(=S)N(CCC)C1	32
N#CC1Sc2ccccc2N1C(=O)Oc1ccccc1 (configuration not stated)	5
Oc1ccc(C2CCc3ccccc32)cc1 (configuration not stated)	-7
NC(=O)C1CCCN1C(=O)C1CCCN(Cc2ccc(CN3CCCC(C(=O)N4CCCC4C(N)=O)C3)cc2)C1 (configuration not stated)	-10
COC(=O)c1ccc(NCc2c(O)ccc(O)c2Br)cc1Cl	21
CC(=O)OC(OC(C)=O)c1ccc([N+](=O)[O-])o1	-5
COC1=CC(=O)c2ncccc2C1=O	8
COc1ccc(C2C3CCCC(C(c4ccc(OC)cc4)N2C)C32NC(=O)NC2=O)cc1 (configuration not stated)	23
COc1ccccc1C(=O)N(Cc1ccccc1)c1ccc(Cl)c(C(=O)OC(C)C)c1	1
